Where do the numbers come from? From patent US20240166765A1.

- target or test system: T1, cynomolgus TF ECD-His6 (cynomolgus monkey (Macaca fascicularis))
- T1 construct: made in Expi293 cells; also called TF-His; cTF
- T1 chain: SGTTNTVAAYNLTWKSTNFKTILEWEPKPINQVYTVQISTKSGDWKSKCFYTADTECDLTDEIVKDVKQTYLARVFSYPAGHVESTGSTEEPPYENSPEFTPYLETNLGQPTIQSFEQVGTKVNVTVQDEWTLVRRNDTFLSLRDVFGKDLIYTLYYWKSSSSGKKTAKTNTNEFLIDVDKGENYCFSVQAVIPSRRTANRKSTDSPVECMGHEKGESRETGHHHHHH
- experiment: BLI (ForteBio Octet)
recorded metric: Kd
Phrase the answer as number then unit, nothing more needed.

binder	result
25G9 (antibody, human IgG1, kappa, V domains shown, human IgG1) VH: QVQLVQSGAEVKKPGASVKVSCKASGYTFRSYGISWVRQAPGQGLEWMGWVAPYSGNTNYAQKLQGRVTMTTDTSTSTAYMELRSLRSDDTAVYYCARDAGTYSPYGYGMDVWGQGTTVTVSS VL: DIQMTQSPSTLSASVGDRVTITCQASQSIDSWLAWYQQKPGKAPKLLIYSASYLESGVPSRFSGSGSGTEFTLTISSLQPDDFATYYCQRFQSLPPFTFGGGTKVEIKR	42.9 nM

Okay, next one:
Sure, the documented Kd for 25G (antibody, human IgG1, kappa, V domains shown, human IgG1) VH: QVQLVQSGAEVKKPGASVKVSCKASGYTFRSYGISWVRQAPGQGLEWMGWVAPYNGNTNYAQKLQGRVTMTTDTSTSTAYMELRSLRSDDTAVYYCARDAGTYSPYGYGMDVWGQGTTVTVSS VL: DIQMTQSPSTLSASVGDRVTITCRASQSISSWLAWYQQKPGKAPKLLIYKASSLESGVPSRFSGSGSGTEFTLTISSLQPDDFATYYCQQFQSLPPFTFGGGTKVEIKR is 17.5 nM
